// data source = paper PMC11808136

# Lookup of reported CC50 keyed by entry
- Tested on: U937 cells
- CONDITION INFO: U937 cells; Table 1 section H1N1

COMPOUND: Cc1ccc(Nc2ncc3c(n2)N(C)C(=O)N(c2cc(NC(=O)c4cccc(C(F)(F)F)c4)ccc2C)C3)cn1 [GNF-7]
CC50: 13.6 µM
//
COMPOUND: COc1cc(Nc2ncc(F)c(Nc3ccc4c(n3)NC(=O)C(C)(C)O4)n2)cc(OC)c1OC [R406]
CC50: > 100 µM
//
COMPOUND: Cc1nc(Nc2ncc(C(=O)Nc3c(C)cccc3Cl)s2)cc(N2CCN(CCO)CC2)n1 [Dasatinib]
CC50: > 100 µM

----------
# Lookup of reported CC50 at 48 h keyed by entry
- ASSAY NOTES: in vitro
- CONDITION INFO: human
READOUT NAME: CC50 at 48 h (µM)

COMPOUND: CCS(=O)(=O)N1CC(CC#N)(n2cc(-c3ncnc4[nH]ccc34)cn2)C1 [Baricitinib]
QUALIFIER SIGN: =
VAL: 5.38
//
COMPOUND: Cc1cc(Nc2nc(N[C@@H](C)c3ncc(F)cn3)ncc2Cl)n[nH]1 [AZD1480]
QUALIFIER SIGN: =
VAL: 100
//
COMPOUND: Cc1nc(Nc2ncc(C(=O)Nc3c(C)cccc3Cl)s2)cc(N2CCN(CCO)CC2)n1 [Dasatinib]
QUALIFIER SIGN: >
VAL: 100

----------
- Test system: IL-8 production in influenza virus-infected U937 cells (H1N1)
- ASSAY NOTES: cells
- Type: cell-based, Human
- CONDITION INFO: Homo sapiens, U-937, secondary screen, Supplemental Table 1; read-out: EC50 IL-8
pEC50: −log10 of the molar value.

COMPOUND: Cc1cc(Nc2nc(N[C@@H](C)c3ccc(F)cc3)c(C#N)cc2F)n[nH]1 [AZ 960]
QUALIFIER SIGN: >
pEC50: 8.30

COMPOUND: CC[C@@](C)(Nc1ccnc(-c2c[nH]c3ncccc23)n1)C(=O)NCC(F)(F)F [Decernotinib]
QUALIFIER SIGN: =
pEC50: 7.70

COMPOUND: O=C(Nc1ccc(-c2ccnc(Nc3ccc(N4CCOCC4)cc3)n2)cc1)C1CCCN1 (stereo not shown) [XL019]
QUALIFIER SIGN: =
pEC50: 6.29

COMPOUND: COc1cc(Nc2ncc(F)c(Nc3ccc4c(n3)N(COP(=O)(O)O)C(=O)C(C)(C)O4)n2)cc(OC)c1OC [Fostamatinib (R788), Fostamatinib]
QUALIFIER SIGN: =
pEC50: 6.47

COMPOUND: C=CC(=O)N1CCC(Oc2cc3c(Nc4ccc(Cl)c(Cl)c4F)ncnc3cc2OC)CC1 [Poziotinib (HM781-36B), Poziotinib]
QUALIFIER SIGN: =
pEC50: 6.47

COMPOUND: C[C@@H](Oc1ccc2[nH]nc(/C=C/c3cnn(CCO)c3)c2c1)c1c(Cl)cncc1Cl [LY2874455]
QUALIFIER SIGN: >
pEC50: 8.30

COMPOUND: Cc1ccc(C(=O)Nc2ccc(CN3CCN(C)CC3)c(C(F)(F)F)c2)cc1C#Cc1cnc2cccnn12 [Ponatinib]
QUALIFIER SIGN: >
pEC50: 8.30
